Origin of the recorded values: ChEMBL document CHEMBL1153420

Target: Muscarinic acetylcholine receptor M1 (Homo sapiens, UniProt P11229)
Sequence (P11229 whole entry): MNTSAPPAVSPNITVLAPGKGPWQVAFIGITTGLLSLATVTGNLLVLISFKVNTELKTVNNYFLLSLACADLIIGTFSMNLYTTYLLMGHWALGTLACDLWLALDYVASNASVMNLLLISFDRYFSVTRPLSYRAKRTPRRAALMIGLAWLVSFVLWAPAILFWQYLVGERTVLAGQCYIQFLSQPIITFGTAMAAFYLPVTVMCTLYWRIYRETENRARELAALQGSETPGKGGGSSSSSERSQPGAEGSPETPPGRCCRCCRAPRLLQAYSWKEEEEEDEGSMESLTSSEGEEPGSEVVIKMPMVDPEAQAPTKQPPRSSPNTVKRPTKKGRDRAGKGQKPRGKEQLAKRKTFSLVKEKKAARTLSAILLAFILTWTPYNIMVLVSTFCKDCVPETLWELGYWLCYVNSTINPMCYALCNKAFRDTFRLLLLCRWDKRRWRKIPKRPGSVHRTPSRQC
So I've got a bunch of molecules here, and I need their Ki values.
Provide the measurement as a number trailed by its unit.

{"columns": ["molecule", "Ki"],
 "data": [
  ["OC(c1ccccc1)(c1ccccc1)C12CC[N+](CCCOc3ccccc3)(CC1)CC2.[Br-]", "0.64 nM"]
]}

Now consider the entry below.
Input: I am curious: what Ki value has been reported for OC(c1ccccc1)(c1ccccc1)C12CC[N+](CCOCc3ccccc3)(CC1)CC2.[Br-] [UMECLIDINIUM BROMIDE] ?
Output: 0.16 nM
